test system: Fibroblast; test: Incucyte cell viability with human fibroblast; type: toxicity, cell-based; details: 12 h, 10 µM, compound concentration 10 uM, replicate number 1; note: unitless GR value; below 1 slowed growth and below 0 cell loss
Grouping rule (Growth Rate): bottom bin = under 0.3, middle bin = from 0.3 up to 0.7, top bin = 0.7 and over

[
  {
    "molecule": "CNC(=O)COc1cc2cc(Nc3nc(N4C[C@H](C)C[C@H](C)C4)ncc3Cl)ccc2n(C)c1=O",
    "targetOfAssay": "Fibroblast",
    "class": "top bin"
  },
  {
    "molecule": "COc1ccc(OC(=O)N(CC(=O)O)Cc2ccc(OCCc3nc(-c4ccccc4)oc3C)cc2)cc1",
    "targetOfAssay": "Fibroblast",
    "class": "top bin"
  },
  {
    "molecule": "CN(C)Cc1cccc(NC(=C2C(=O)Nc3cc(C(N)=O)ccc32)c2ccccc2)c1",
    "targetOfAssay": "Fibroblast",
    "class": "bottom bin"
  },
  {
    "molecule": "CCN1C(=O)N(c2c(F)c(OC)cc(OC)c2F)Cc2cnc3[nH]c(CN4CCOCC4)cc3c21",
    "targetOfAssay": "Fibroblast",
    "class": "middle bin"
  },
  {
    "molecule": "COc1ccc(COc2ccc(Cc3cnc(N)nc3N)cc2OC)cc1 [GW632580X]",
    "targetOfAssay": "Fibroblast",
    "class": "top bin"
  },
  {
    "molecule": "O=c1cccc2n1C[C@@H]1CNC[C@H]2C1",
    "targetOfAssay": "Fibroblast",
    "class": "bottom bin"
  },
  {
    "molecule": "O=C1CCCc2[nH]c(-c3ccnc(NCC4CC4)c3)c(Nc3ccccc3)c21",
    "targetOfAssay": "Fibroblast",
    "class": "middle bin"
  },
  {
    "molecule": "Cc1cc(-c2cnc(N)c3c(-c4ccc5scnc5c4)csc23)n(C)n1",
    "targetOfAssay": "Fibroblast",
    "class": "middle bin"
  }
]

For `Cc1cc(C)cc(C(=O)NOCCCCCC(=O)NO)c1` , which Growth Rate bin applies?
bottom bin

For `CC#CC(=O)N1CCN(c2nc(-c3ccc(Oc4ccccc4)cc3)c(C(N)=O)s2)CC1` , which Growth Rate bin applies?
middle bin

For `Cc1nnsc1C(=O)Nc1ccc(-n2nc(C(F)(F)F)cc2C(F)(F)F)cc1` , which Growth Rate bin applies?
bottom bin

For `CCCN1CCC(C#N)(NC(=O)[C@H](CC(C)(C)C)NC(=O)N2CCOCC2)CC1` , which Growth Rate bin applies?
top bin

For `CC(C)c1cnn2c(NCc3ccccc3)cc(NCCCCCCN)nc12.Cl` , which Growth Rate bin applies?
middle bin

For `COc1c(C(=O)/C=C/c2ccccc2)c(O)c(OC)c2occc12` , which Growth Rate bin applies?
bottom bin

For `O=C1COc2cc(C(=O)N(Cc3ccc(C(=O)Nc4ccncn4)cc3)C3CC3)ccc2N1` , which Growth Rate bin applies?
bottom bin

For `CCCCNc1ncc2c(-c3ccc(CN4CCN(C)CC4)cc3)cn([C@H]3CC[C@H](O)CC3)c2n1` , which Growth Rate bin applies?
middle bin

For `Cc1c(N2CCCC2)nc2ccc(Br)cc2c1C(=O)NC[C@H](CCC(=O)O)c1ccccc1Cl` , which Growth Rate bin applies?
top bin

For `CS(=O)(=O)NCC[C@H](NC(=O)c1cncc2c1cnn2-c1ccc(F)cc1)c1ccnc(S(C)(=O)=O)c1` , which Growth Rate bin applies?
top bin

For `N#CN1CC[C@@H](C(=O)Nc2nc3c(s2)CN(C(=O)CN=[N+]=[N-])CC3)C1` , which Growth Rate bin applies?
top bin
